The reported measurements were obtained from patent US9896445B2.

Target: ERK1 (Homo sapiens)
Construct: purchased Jubilant Biosys
Sequence (P27361 whole entry): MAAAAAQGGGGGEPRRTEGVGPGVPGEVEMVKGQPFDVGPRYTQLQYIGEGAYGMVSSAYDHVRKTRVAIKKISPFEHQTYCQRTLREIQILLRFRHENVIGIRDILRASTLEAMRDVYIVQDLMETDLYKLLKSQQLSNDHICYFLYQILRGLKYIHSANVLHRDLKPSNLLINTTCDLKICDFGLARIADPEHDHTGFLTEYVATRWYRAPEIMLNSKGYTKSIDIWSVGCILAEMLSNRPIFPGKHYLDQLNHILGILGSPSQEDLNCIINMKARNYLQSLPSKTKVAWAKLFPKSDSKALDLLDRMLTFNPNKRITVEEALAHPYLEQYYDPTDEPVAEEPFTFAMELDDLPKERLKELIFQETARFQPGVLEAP
Experiment: ERK1 HTRF (biochemical) assay
Details: HTRF
Structures can show the parent of a compound that is named as a salt.
IC50 for assorted compounds
readout_label: IC50

* Cc1cnc(Nc2ccc(F)cc2Cl)nc1-n1cc(C(=O)N[C@H](CO)c2cccc(Cl)c2)cn1 | < 50 nM
* CCNc1ncc(C)c(-n2ccc(C(=O)NC(CO)c3ccccc3)c2)n1 (stereo not shown) | 100 to 500 nM
* Cc1cnc(Nc2ccc3c(c2)OC(C)(C)O3)nc1-n1ccc(C(=O)NC(CO)c2ccccc2)c1 (stereo not shown) | 50 to 100 nM
* Cc1cnc(NC2CCOCC2)nc1-n1cnc(C(=O)NC(CN)c2ccc(Cl)s2)c1 (stereo not shown) [Example 274] | < 50 nM
* Cc1cnc(NC2CCOC2)nc1-n1ccc(C(=O)NC(CO)c2cccc(Cl)c2)c1 (stereo not shown) | < 50 nM
* CC[C@@H](CO)Nc1ncc(C)c(-n2ccc(C(=O)N[C@H](CO)c3ccc(F)c(Cl)c3)c2)n1 | < 50 nM
* Cc1cnc(Nc2ccc(F)cc2)cc1-n1cnc(C(=O)NC(CN)c2ccccc2)c1 (stereo not shown) [Compound 191] | < 50 nM
* Cc1cnc(NC2CCOCC2)nc1-n1cnc(C(=O)NC(CO)c2ccc(Cl)s2)c1 (stereo not shown) | < 50 nM
* Cc1cnc(Nc2ccc(F)c(N3CCOCC3)c2)nc1-n1cnc(C(=O)NC(CN)c2cccc(Cl)c2)c1 (stereo not shown) | < 50 nM
* Cc1cnc(Nc2ccc3c(c2)OCO3)nc1-n1ccc(C(=O)NC(CO)c2cccc(Cl)c2)c1 (stereo not shown) | < 50 nM
* Cc1cnc(Nc2ccc3c(c2)OC(F)(F)O3)nc1-n1ccc(C(=O)N[C@H](CO)c2ccc(F)c(Cl)c2)c1 | < 50 nM
* Cc1cnc(NC2CCC(F)(F)CC2)nc1-n1cnc(C(=O)N[C@H](CO)c2cccc(Cl)c2)c1 | < 50 nM
* Cc1cn(-c2nc(Nc3ccc(F)cc3)ncc2C)cc1C(=O)NC(CO)c1ccccc1 (stereo not shown) | < 50 nM
* Cc1cnc(Nc2ccc(F)cc2Cl)nc1-n1ccc(C(=O)NC(COC(=O)C(N)CC(C)C)c2ccccc2)c1 (stereo not shown) | 100 to 500 nM
* Cc1cnc(Nc2ccc3[nH]cc(C4=CCNCC4)c3c2)nc1-n1ccc(C(=O)NC(CO)c2cccc(Cl)c2)c1 (stereo not shown) [Compound 209, hydrochloride] | < 50 nM
* Cc1cnc(Nc2ccc(F)cc2)cc1-n1cnc(C(=O)NC(CN)c2ccccc2)c1 (single isomer, unassigned) [Compound 228] | 100 to 500 nM
* Cc1cnc(Nc2ccc(F)cc2Cl)nc1-n1cc(NC(=O)N[C@H](CO)c2ccc(F)c(Cl)c2)cn1 | < 50 nM
* O=C(NC(CO)c1ccccc1)c1ccn(-c2nc(Nc3ccc4c(c3)OCO4)ncc2F)c1 (stereo not shown) | < 50 nM
* Cc1cnc(NC2(CO)CC2)nc1-n1ccc(C(=O)NC(CO)c2ccc(F)c(Cl)c2)c1 (stereo not shown) | 100 to 500 nM
* Cc1cnc(NC2CCOCC2)nc1-n1cnc(C(=O)NC(CO)c2cccs2)c1 (stereo not shown) | < 50 nM
* CC(=O)NCC(NC(=O)c1ccn(-c2cc(Nc3ccc(F)cc3)ncc2C)c1)c1ccccc1 (stereo not shown) | < 50 nM
* Cc1cnc(Nc2ccc(F)cc2)cc1-n1cnc(C(=O)NC(CO)c2ccccc2)c1 (stereo not shown) | 100 to 500 nM
* Cc1cnc(Nc2ccc(F)cc2Cl)nc1-n1ccc(C(=O)NC(CN)c2cccc(Cl)c2)c1 (stereo not shown) | 50 to 100 nM
* Cc1cnc(N[C@@H]2CCOC2)nc1-n1cnc(C(=O)N[C@H](CO)c2cccc(Cl)c2)c1 | < 50 nM
* Cc1cnc(Nc2ccc3c(c2)OC(F)(F)O3)nc1-n1ccc(C(=O)NC(CO)c2cccc(Cl)c2)c1 (stereo not shown) | < 50 nM
* O=C(NC(CO)c1ccccc1)c1ccn(-c2ccnc(Nc3ccc(F)cc3Cl)c2)c1 (stereo not shown) | 50 to 100 nM
* Cc1cnc(NC2CC2)nc1-n1cc(NC(=O)NC(CO)c2cccc(Cl)c2)cn1 (stereo not shown) | 50 to 100 nM
* O=C(NC(CO)c1cccc(Cl)c1)c1ccn(-c2ccnc(Nc3ccccc3)c2)c1 (stereo not shown) | < 50 nM
* Cc1cnc(N[C@H]2CCOC2)nc1-n1ccc(C(=O)NC(CO)c2ccc(F)cc2)c1 (stereo partly shown) | 50 to 100 nM
* Cc1cnc(Nc2ccccc2Cl)nc1-n1cc(NC(=O)NC(CO)c2cccc(Cl)c2)cn1 (stereo not shown) | > 2500 nM
* Cc1cnc(NC2CC2)nc1-n1cc(C(=O)NC(CO)c2cccc(Cl)c2)cn1 (stereo not shown) | 50 to 100 nM

---

Target: ERK2 (Homo sapiens)
Construct: purchased Jubilant Biosys
Assay: ERK2 HTRF (biochemical) assay
Conditions: HTRF
readout_label: IC50

- Cc1cnc(N[C@@H]2CCOC2)nc1-n1cnc(C(=O)N[C@H](CO)c2cccc(Cl)c2)c1 [Example 265]: ≤ 50 nM
- Cc1cnc(NC2CCCOC2)nc1-n1ccc(C(=O)NC(CO)c2ccccc2)c1 (centres unmarked) [Compound 141]: ≤ 50 nM
- Cc1cnc(Nc2ccc3c(c2)OC(F)(F)O3)nc1-n1ccc(C(=O)NC(CO)c2ccccc2)c1 (centres unmarked) [Compound 63]: ≤ 50 nM
- Cc1cnc(Nc2ccc3c(c2)OCO3)nc1-n1cnc(C(=O)N[C@H](CN)c2cccc(Cl)c2)c1 [Example 266]: ≤ 50 nM
- Cc1cnc(Nc2ccc3c(c2)OC(F)(F)O3)cc1-n1ccc(C(=O)NC(CO)c2ccccc2)c1 (centres unmarked) [Compound 80]: ≤ 50 nM
- Cc1cnc(N[C@H]2CCOC2)nc1-n1cnc(C(=O)NCc2cccc(Cl)c2CO)c1 [Example 270]: ≤ 50 nM
- Cc1cnc(Nc2ccc(F)c(C(=O)N3CCN(C)CC3)c2)nc1-n1ccc(C(=O)NC(CO)c2cccc(Cl)c2)c1 (centres unmarked) [Compound 179]: ≤ 50 nM
- Cc1cnc(Nc2ccc3c(c2)OCO3)nc1-n1cc(C(=O)NC(CO)c2cccc(Cl)c2)cn1 (centres unmarked) [Compound 41]: ≤ 50 nM

---

Molecular target: ERK2 (Homo sapiens, UniProt P28482)
Construct: purchased Jubilant Biosys
Sequence (P28482 whole entry): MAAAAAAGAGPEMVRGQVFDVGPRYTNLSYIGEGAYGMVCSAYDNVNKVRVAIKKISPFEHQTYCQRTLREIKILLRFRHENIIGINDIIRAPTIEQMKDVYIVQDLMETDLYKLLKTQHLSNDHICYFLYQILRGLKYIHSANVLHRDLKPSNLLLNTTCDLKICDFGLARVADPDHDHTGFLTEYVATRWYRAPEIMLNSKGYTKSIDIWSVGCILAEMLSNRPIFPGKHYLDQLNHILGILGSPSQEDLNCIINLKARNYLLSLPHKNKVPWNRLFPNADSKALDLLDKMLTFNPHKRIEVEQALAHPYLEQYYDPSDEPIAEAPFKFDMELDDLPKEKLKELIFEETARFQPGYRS
Experiment: ERK2 HTRF (biochemical) assay
Details: HTRF
pIC50: −log10 of the molar value.
readout_label: pIC50

* Cc1cnc(Nc2ccc(F)c(N3CCNCC3)c2)nc1-n1ccc(C(=O)NC(CO)c2cccc(Cl)c2)c1 (stereo not shown) | ≥ 7.30
* Cc1cnc(Nc2ccc3c(c2)OC(F)(F)O3)cc1-n1cnc(C(=O)NC(CN)Cc2ccccc2)c1 (stereo not shown) | 6.30 to 7.00
* Cc1cnc(Nc2ccc3c(c2)OCO3)nc1-n1cc(NC(=O)N[C@H](CO)c2ccccc2)cn1 | 7.00 to 7.30
* Cc1cnc(NC2CCOCC2)nc1-n1cnc(C(=O)N[C@]2(c3cccc(Cl)c3)C[C@H](O)C2)c1 | ≥ 7.30
* Cc1cnc(NC2CCC(F)(F)CC2)nc1-n1cnc(C(=O)N[C@H](CO)c2cccc(Cl)c2)c1 | ≥ 7.30
* CC[C@@H](CO)Nc1ncc(C)c(-n2ccc(C(=O)NC(CO)c3cccc(Cl)c3)c2)n1 (stereo partly shown) | ≥ 7.30
* O=C(N[C@H](CO)c1cccc(Cl)c1)c1ccn(-c2ccnc(NC3CCOC3)c2)c1 (stereo partly shown) | 6.30 to 7.00
* O=C(Nc1cnn(-c2ccnc(Nc3ccccc3Cl)n2)c1)N[C@H](CO)c1cccc(Cl)c1 | ≥ 7.30
* Cc1cnc(Nc2ccnn2C)nc1-n1cnc(C(=O)N[C@H](CO)c2cccc(Cl)c2)c1 | ≥ 7.30
* CC[C@@H](CO)Nc1ncc(C)c(-n2ccc(C(=O)NC(CO)c3ccccc3)c2)n1 (stereo partly shown) | ≥ 7.30
* O=C(NC(CO)c1cccc(Cl)c1)c1cn(-c2cc(Nc3ccccc3)ncc2Cl)cn1 (stereo not shown) | ≥ 7.30
* COc1cc(C(=O)N2CCOCC2)c(F)cc1Nc1ncc(C)c(-n2ccc(C(=O)NC(CO)c3cccc(Cl)c3)c2)n1 (stereo not shown) | ≥ 7.30
* Cc1cnc(Nc2cccnc2)nc1-n1cc(NC(=O)N[C@H](CO)c2cccc(Cl)c2)cn1 | ≥ 7.30
* Cc1cnc(NC2CCOCC2)nc1-n1cnc(C(=O)NC(CN)c2cccc(Cl)c2)c1 (racemic) | ≥ 7.30
* Cc1cnc(Nc2ccc3c(c2)OCO3)nc1-n1cnc(C(=O)NC(CN)c2cc(F)cc(Cl)c2)c1 (stereo not shown) | ≥ 7.30
* Cc1cnc(N[C@@H]2CCOC2)nc1-n1ccc(C(=O)N[C@H](CO)c2cccc(Cl)c2)c1 | ≥ 7.30
* Cc1cnc(NC2(CO)CC2)nc1-n1ccc(C(=O)NC(CO)c2ccc(F)c(Cl)c2)c1 (stereo not shown) | 6.30 to 7.00
* Cc1cnc(Nc2ccc3c(c2)OCO3)nc1-n1cc(NC(=O)NC(CO)c2cccc(Cl)c2)cn1 (stereo not shown) | ≥ 7.30
* Cc1cnc(Nc2ccc(F)cc2)nc1-n1cc(C(=O)NC(CO)c2ccccc2)nc1C (stereo not shown) | 6.30 to 7.00
* Cc1cnc(NC2CCOCC2)nc1-n1cnc(C(=O)NCc2ccccc2CO)c1 | ≥ 7.30
* Cc1cnc(Nc2ccc(F)cc2)cc1-n1cnc(C(=O)NC(CN)c2ccc(F)cc2)c1 (stereo not shown) | ≥ 7.30
* CC[C@@H](CO)Nc1cc(-n2ccc(C(=O)NC(CO)c3ccccc3)c2)c(C)cn1 (stereo partly shown) | ≥ 7.30
* Cc1cnc(Nc2ccc3c(c2)OCCO3)nc1-n1ccc(C(=O)NC(CO)c2ccccc2)c1 (stereo not shown) | ≥ 7.30
* Cc1cnc(Nc2ccc(F)cc2Cl)nc1-n1ccc(C(=O)NC(CO)c2ccccc2)c1 (stereo not shown) | ≥ 7.30
* O=C(N[C@H](CO)c1cccc(Cl)c1)c1cn(-c2ccnc(NC3CC3)c2)cn1 | ≥ 7.30
* Cc1cnc(NC2CCOCC2)nc1-n1cnc(C(=O)NCc2ccccc2CN)c1 | ≥ 7.30
* O=C(NC(CO)c1cccc(Cl)c1)c1ccn(-c2ccnc(Nc3ccc4c(c3)OC(F)(F)O4)n2)c1 (stereo not shown) | ≥ 7.30
* Cc1cnc(NC2CCOCC2)nc1-n1cnc(C(=O)NCc2ccccc2CCO)c1 [Compound 94] | ≥ 7.30
* Cc1cnc(Nc2ccc(F)c(C(=O)N(C)C)c2)nc1-n1ccc(C(=O)NC(CO)c2cccc(Cl)c2)c1 (stereo not shown) | ≥ 7.30
* Cc1cnc(Nc2ccc(F)cc2)cc1-n1cnc(C(=O)NC(CN)c2ccccc2)c1 (stereo not shown) [Compound 191] | 7.00 to 7.30
* Cc1cnc(N[C@H]2CCOC2)nc1-n1ccc(C(=O)N[C@H](CO)c2cccc(Cl)c2)c1 | ≥ 7.30
